TARGET OR SYSTEM: HLA-A2.1 molecule (Homo sapiens, UniProt P04439, D140Y/D185E/D98H/E176V/E277Q/G131W/G231S/I119V/I121R/I166T/I218V/L300P/L318F/N151K/N90K/P208A/P217A/Q86G/Q94H/R138H/R169H/T345S)
MEASUREMENT PROTOCOL: HLA-A class I binding assay (competitive inhibition of radiolabeled probe peptide)
CONDITION INFO: competitive inhibition of binding of radiolabeled standard probe peptide to purified detergent-solubilized HLA-A2.1
Ends that are not written are not given here.
IC50 listing for selected sequences.
READOUT: IC50 (nM)

* FANNKFTLV [Ts 43] | 116
* ELLRPTTLV [Ts 52] | 2410
* FLSHDFTLV [Ts 24] | 0.46
* FVDYNFSLV [Ts 47] | 1.1
* IANYNFTLV [Ts 56] | 29600
* FANYNFTLL [Ts 51] | 1500
* LLGLWVFAAL [Ts 2] | 36
* FANHDFTLV [Ts 34] | 101
* RVSRPTTVV [Ts 58] | 2490
* GLLPSLLLLL [Ts 3] | 3.1
* FANYKFTLV [Ts 44] | 49
* LLGLWGTAAL [Ts 13] | 499
* SLSHYFTLVF [Ts 26] | 1.6
* RLLPSLLLLL [Ts 4] | 0.8
* FANYNFTLV [Ts 48] | 0.47
* LLGLWGLATA [Ts 6] | 24

* * *

pIC50 listing for selected sequences.
TARGET OR SYSTEM: HLA-A2.1 molecule (Homo sapiens, UniProt P04439, D140Y/D185E/D98H/E176V/E277Q/G131W/G231S/I119V/I121R/I166T/I218V/L300P/L318F/N151K/N90K/P208A/P217A/Q86G/Q94H/R138H/R169H/T345S)
MEASUREMENT PROTOCOL: HLA-A class I binding assay (competitive inhibition of radiolabeled probe peptide)
CONDITION INFO: competitive inhibition of binding of radiolabeled standard probe peptide to purified detergent-solubilized HLA-A2.1
pIC50: −log10 of the molar value. Ends that are not written are not given here.
READOUT: pIC50

- FANHKFTLV [Ts 38]: 6.83
- FLSHNFTLVF [Ts 27]: 9.21
- FVSCDFTIV [Ts 35]: 7.52
- FVNYNFTLV [Ts 45]: 9.60
- FVNHRFTLV [Ts 37]: 6.52
